run.description: protein stability index of a GFP-peptide fusion (GPS, HEK-293T) (PSI 1-6); higher = more stable;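 also: 24-mer peptide tiles fused after GFP, lentivirally expressed, FACS-sorted into six equal bins by GFP/DsRed ratio, decoded by Illumina sequencing, PSI is the read-weighted mean bin number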
setup.conditions: treatment: DMSO; c terminus: a fixed tail appended
As shown below, each of these sequences has a reported protein stability index value.
Write no unit; give the number alone.

In [3]: df
Out[3]:
                      sequence_string  recorded_value
0     MSQGPPTGESSEPEAKVLHTKRLY [SMG5]            4.81
1   VNLEEIPGEGLLISWAFTDRPDLS [C2CD2L]            2.14
2  GNGVHVCNVKYKRWALLSCRGKKP [KLHDC10]            2.73
3    YALRAYLGYQAVPSGSSGSLSTSS [CEBPB]            2.23
4    RQVWLLFEYPESSGPARVIAIVSV [KCNA1]            3.25
5    DASILTEMPTQPGKPLIPPMNRRN [NETO1]            4.45

Now for a further sequence.
query: For the sequence shown here, FEQTPALTKHEWTEALGCDPPLSQ [ZNF8] , give the reported protein stability index.
result: 4.56
